// reported fluorescence, percent of control (lower = inhibition) for each item listed
- STUDY SYSTEM: Cell division control protein 42 homolog (Homo sapiens)
- ASSAY INFO: inhibition of fluorescent GTP binding to wildtype Cdc42 – biochemical, multiplex bead flow cytometry, Bodipy-FL-GTP, dose response (AID 1334)
- CONDITION PARAMETERS: bead-based flow cytometry, Bodipy-FL-GTP binding to GST-Cdc42; at 100 µM (top of the series) unless noted
Measured potencies and affinities stand elsewhere.

Cc1ccc(/C=C/C(=O)c2ccccc(=O)c2O)cc1C :: 37.3%
O=C(CSc1ccccc1)Nc1ccc(C(=O)Nc2cccc(O)c2)cc1 :: 33.6%
C=CCNc1nc(=S)[nH]c2cc(OC)c(OC)cc12 :: 31.2%
NC1=NC(=O)/C(=C/c2cn(CCC(=O)O)nc2-c2ccc(Cl)cc2)S1 :: 18.2%

I'd like to know its fluorescence, percent of control (lower = inhibition). The compound in question is O=C(OC(C(=O)NCc1cccs1)c1ccccn1)c1cccs1 (stereo not drawn)
83.4%

Query (compound): COc1cc(C(=O)OCC(=O)Nc2ccc3c(c2)OC(F)(F)O3)ccc1OCc1c(C)noc1C ; field requested: fluorescence, percent of control (lower = inhibition)
52.4%

Given COc1ccc(OCCSc2nc3nc(C)cc(C)n3n2)cc1 , state its recorded fluorescence, percent of control (lower = inhibition).
45.5%

Item under review: COc1ccc(-n2c(C)cc(/C=C3\SC(=S)N(Cc4ccco4)C3=O)c2C)cc1 . Reported fluorescence, percent of control (lower = inhibition)?
75.8%

Name the recorded fluorescence, percent of control (lower = inhibition) for CN(C)c1ccc(/C=C2\SC(=S)N(Nc3ncc(C(F)(F)F)cc3Cl)C2=O)cc1 .
139%

Any idea what fluorescence, percent of control (lower = inhibition) was measured for COc1cc(-c2cc(-c3ccc(O)cc3)nc(N)c2C#N)ccc1O ?
28%

Bench note: what fluorescence, percent of control (lower = inhibition) did Cn1c(SCC(=O)Nc2cccc(Br)c2)nnc1-c1cc2ccccc2o1 show?
101%

Which value of fluorescence, percent of control (lower = inhibition) has been reported for COc1cccc(C(=O)O)c1OCc1c(C)cccc1C in the records?
58.8%

I would be grateful if you could share the reported fluorescence, percent of control (lower = inhibition) for Cc1nc(Nc2ccc(C(=O)O)cc2)nc(Nc2ccc(C(=O)O)cc2)c1[N+](=O)[O-] .
28.7%

Name the reported fluorescence, percent of control (lower = inhibition) value associated with the compound COCCNC(=S)Nc1cc(OC)c(OC)cc1C#N
40.8%

Param item = CCOC(=O)c1cc(C(=O)OCC)c(=O)[nH]c1N1CCCC1 ; retrieve measured fluorescence, percent of control (lower = inhibition).
31.6%

I would be grateful if you could share the reported fluorescence, percent of control (lower = inhibition) for COc1cccc(-c2cc(C(F)(F)F)c(C#N)c(=O)[nH]2)c1 .
30%

Would you mind telling me what fluorescence, percent of control (lower = inhibition) value was observed for COC(=O)C1=NN(C(=O)c2cccc(Br)c2)C(O)(c2ccc(Cl)cc2)C1 (stereo not drawn) ?
31.2%

Form field: reported fluorescence, percent of control (lower = inhibition) of O=C(C#CC1CCCCC1)c1ccc([N+](=O)[O-])cc1
33%

----------
Catalogue of double positive events readings, one per entry.
- ASSAY INFO: reduced mouse 2C T cell binding to pMHC/ICAM-1 vesicles – MLPCN validation set, flow cytometry, LFA-1/ICAM-1 modulator project, pilot screen (AID 2523)
- CONDITION PARAMETERS: 2C mouse CD8+ T cells, at 7 µM, stronger effect = lower value; measured here: CD8+/vesicle+ event percentage
Express your answer as a number followed by its unit.

// known answers, use as guide
O=C(NCCO)c1ccc2[nH]c3ccccc3c2c1 :: 58.7%
Cc1ccc2c(c1)C1(C(=O)N2)N2CCCC2C(C(=O)c2ccc3ccccc3c2)C12C(=O)Nc1ccccc12 (stereo not drawn) :: 60.9%
COc1ccc2c3c([nH]c2c1)C1(NCC3)C(=O)Nc2ccccc21 (stereo not drawn) :: 59.5%
CC(C)N(C(=O)Cc1ccccc1[N+](=O)[O-])C(C)C :: 60.4%

// returns reported double positive events for input COc1cc2[nH]c3c(=O)n(CCN4CCOCC4)cnc3c2cc1OC
60.3%

If you can, please state the reported double positive events value of Cc1cnc(N)c2c(=O)oc3ccccc3c12 .
61.2%

I have this compound here, CC(C)c1cc(=O)oc2c3c4c(cc12)CCCN4CCC3 , and I need its recorded double positive events.
59.3%

Item Cc1ccc2nc(C)c3c(c2c1)OC(C(C)(Cl)Br)C3 (stereo not drawn) has what recorded double positive events?
73%

Requested field: double positive events. Item: Cc1ccc(O)c(CCc2ccccc2)n1
61.6%

----------
The entries below are paired with their reported inhibition.
- STUDY SYSTEM: AP-2 complex subunit beta (Homo sapiens) (UniProt P63010)
- Sequence (P63010 whole entry, looked up, one chain of several): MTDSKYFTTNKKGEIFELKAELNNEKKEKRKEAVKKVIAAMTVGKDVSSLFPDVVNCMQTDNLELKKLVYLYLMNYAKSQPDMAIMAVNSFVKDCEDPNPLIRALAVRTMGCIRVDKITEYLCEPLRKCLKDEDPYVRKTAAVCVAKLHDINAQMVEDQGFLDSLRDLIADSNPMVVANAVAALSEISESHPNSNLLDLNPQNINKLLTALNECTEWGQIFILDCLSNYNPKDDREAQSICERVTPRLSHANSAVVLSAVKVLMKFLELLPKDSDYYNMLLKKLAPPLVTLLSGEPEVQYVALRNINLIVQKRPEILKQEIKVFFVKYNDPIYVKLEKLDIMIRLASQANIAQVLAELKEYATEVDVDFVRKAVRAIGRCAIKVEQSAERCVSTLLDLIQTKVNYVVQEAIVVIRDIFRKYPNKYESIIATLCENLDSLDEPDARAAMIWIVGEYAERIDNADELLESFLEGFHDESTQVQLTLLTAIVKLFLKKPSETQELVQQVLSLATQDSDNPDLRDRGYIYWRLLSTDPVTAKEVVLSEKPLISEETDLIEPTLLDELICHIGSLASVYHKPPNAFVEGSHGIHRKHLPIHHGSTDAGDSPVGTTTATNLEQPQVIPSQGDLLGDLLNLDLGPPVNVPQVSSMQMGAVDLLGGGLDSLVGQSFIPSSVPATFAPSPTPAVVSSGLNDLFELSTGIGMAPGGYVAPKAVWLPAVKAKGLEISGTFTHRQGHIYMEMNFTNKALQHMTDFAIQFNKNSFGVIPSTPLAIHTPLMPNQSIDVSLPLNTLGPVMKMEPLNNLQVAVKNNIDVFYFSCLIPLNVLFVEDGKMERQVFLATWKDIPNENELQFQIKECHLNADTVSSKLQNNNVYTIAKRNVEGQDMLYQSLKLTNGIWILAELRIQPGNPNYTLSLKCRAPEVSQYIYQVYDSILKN
- ASSAY INFO: beta-arrestin/AP2 interaction blockers – biochemical, validation set, GST-AP2 beads, flow cytometry, pilot screen (AID 504541);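 note: AP2 carries R879A mutation and is captured from E. coli lysate; bead-bound FITC arrestin peptide fluorescence measuring arrestin peptide binding to AP2; 0% = DMSO wells and 100% = excess unlabeled arrestin peptide control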
- CONDITION PARAMETERS: FITC arrestin peptide, at 10 µM, stronger effect = higher value, AP2 beta2 appendage fragment, R879A mutant
Express the result in % but write the number alone.

# count of solved cases: 3
N#Cc1cc2c([nH]c1=O)CCCC2 :: -13.1
O=C(Cc1c[nH]c2ccccc12)OCCOC(=O)Cc1c[nH]c2ccccc12 :: -12.4
COc1cc2c(cc1OC)-c1nnc(C)n1C(C)(C)C2 :: -4.56

Now look at this one.
Param item = CO[C@H]1C=CO[C@@]2(C)Oc3c(C)c(O)c4c(O)c(c(C=NN5CCN(C)CC5)c(O)c4c3C2=O)NC(=O)C(C)=CC=C[C@H](C)[C@H](O)[C@@H](C)[C@@H](O)[C@@H](C)[C@H](OC(C)=O)[C@@H]1C ; retrieve measured inhibition.
-2.48

----------
- ASSAY INFO: reduced mouse 2C T cell binding to pMHC/ICAM-1 vesicles – MLPCN validation set, flow cytometry, LFA-1/ICAM-1 modulator project, pilot screen (AID 2523);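 for vesicle binding response: mean PE anti-B7-1 fluorescence of CD8+ cells relative to row control; 100% = QL9-loaded vesicles with DMSO vehicle in the same plate row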
- CONDITION PARAMETERS: 2C mouse CD8+ T cells, at 7 µM, stronger effect = lower value
OUTCOME MEASURE: vesicle binding response (%)
Number in %, nothing else.

// below: answered compounds
COC(=O)C1=CN(Cc2cccs2)C=C(C(=O)OC)C1c1cccc(Cl)c1 :: 186
CCCN1CCC(NC(=O)Nc2ccc(Br)cc2)CC1 :: 96.6
COc1ccc(C2C3CCCCC3(O)CCN2C(=O)c2cccs2)cc1 (stereo unspecified) :: 376
COc1ccc(C(=O)NCC2OCCc3ccccc32)cc1 (stereo unspecified) :: 122

Return reported vesicle binding response; argument: CCc1c(C(C)=O)oc2ccc3c(C)cc(=O)oc3c12
146

Requested read-out: vesicle binding response. Entry: CN1C2CCC1CC(OC(c1ccccc1)c1ccccc1)C2 (stereo unspecified)
247

Recorded vesicle binding response for O=C(NC(=S)Nc1ccc(N2CCN(C(=O)c3ccccc3)CC2)cc1)c1cccs1 , please?
106

Recorded vesicle binding response of O=C(COc1ccccc1)Nc1ccc2c(c1)C(=O)N(CC1CCCO1)C2=O (stereo unspecified) , please.
179

----------
- ASSAY INFO: reduced mouse 2C T cell binding to pMHC/ICAM-1 vesicles – MLPCN validation set, flow cytometry, LFA-1/ICAM-1 modulator project, pilot screen (AID 2523)
- CONDITION PARAMETERS: 2C mouse CD8+ T cells, at 7 µM, stronger effect = lower value; measured here: CD8+/vesicle+ event percentage
OUTCOME MEASURE: double positive events (%)
Lab book: enter the figure in %, no units written.

Reference set, count: 3
COc1cc(-c2nnc(-c3cccs3)o2)cc(OC)c1OC :: 61.1
COc1ccc(C2NCCC3(O)CCCCC23)c(OC)c1OC (centres undefined) :: 57.7
O=[N+]([O-])c1cccc2cn[nH]c12 :: 51.9

Returns the measured double positive events for the input compound. Input: CCc1c(C(C)=O)oc2ccc3c(C)cc(=O)oc3c12
61.9

Requested read-out: double positive events. Entry: CC(C)CCC1(CCNC(C)c2cccs2)CCOC(C)(C)C1 (centres undefined)
58.8

What does the record list as double positive events for COc1ccc(CNCCC(c2ccc(F)cc2)c2ccc(OC(C)C)cc2)cc1OC (centres undefined) ?
66.1

Fill in: double positive events of Cc1nc(-c2coc3c(CN(C)C)c(O)ccc3c2=O)cs1 is ___
61.6

Recorded double positive events of CN(C)CCCN1c2ccccc2Sc2ccc(C(F)(F)F)cc21 , please.
60.5

Any idea what its double positive events is? The compound is Cc1cccc(Nc2ccccc2C(=O)O)c1C
65.8

----------
- ASSAY INFO: reduced mouse 2C T cell binding to pMHC/ICAM-1 vesicles – MLPCN validation set, flow cytometry, LFA-1/ICAM-1 modulator project, pilot screen (AID 2523)
- CONDITION PARAMETERS: 2C mouse CD8+ T cells, at 7 µM, stronger effect = lower value; measured here: CD8+/vesicle+ event percentage
Label YES when double positive events is strictly below 60%; at or above that, label NO.

Example cases with answers are listed next.
COc1cc(C2C(C(C)=O)=C(O)C(=O)N2c2ccc(C)cc2)ccc1O (configuration not stated) :: YES
CCn1cc(C(=O)O)c(=O)c2ccc(C)nc21 :: YES
CC(C)(C)C(=O)NC(=S)NNC(=O)c1ccncc1 :: YES

Does the reported double positive events of COc1ccc(CCN=CC2=C(O)CC(C)(C)CC2=O)cc1 stay below 60%?
NO

Please state whether double positive events is below 60% for CCn1ccnc1CN(C)Cc1cn(-c2cccc(C)c2)nc1-c1cccc(F)c1
NO

Quick check: does c1ccc(Cn2ncc3c(Nc4ccccc4)ncnc32)cc1 have double positive events under 60%?
NO
